All values here come from PubChem BioAssay (NCI).

Parameter: growth. Scope: all listed entries.
Test system: NCI-H522 lung
Test: NCI-60 one-dose screen, 48 h (100 = growth as untreated, 0 = no growth, -100 = all killed)
Details: 10 µM unless noted
Compounds without any hit were thinned out: in the full panel of roughly 83,000, 20% have a hit. The source made the active and inactive calls. Rule for the calls: active = growth percent below 10; inactive = the rest.

Exam item: Would you kindly share the measured growth for `COc1cc(/C=C/C(=O)N2CCC=CC2=O)cc(OC)c1OC` ?
Marked response: -68.2% (active)

Exam item: Would you kindly share the measured growth for COc1ccc2c(c1)OC(N)=C(C#N)C2c1ccc(F)cc1 (centres undefined) ?
Marked response: -10.1% (active)

====

Tested on: ACHN renal
Assay: NCI-60 one-dose screen, 48 h (100 = growth as untreated, 0 = no growth, -100 = all killed)
Conditions: 10 µM unless noted
About 83,000 compounds went through this panel and 20% of them were active in at least one assay; those are over-represented in the sample as a whole.
Under this convention, class 1 denotes growth strictly below 20% and class 0 denotes growth at or above 20%.

Consider the worked cases shown below.
CC1=C2C(=C[C@@](C)(CO)[C@@H]2OC(=O)N(C)CCN(C)C(=O)OC(C)(C)C)C(=O)[C@](C)(O)C12CC2 | class 1
CCCc1nn2c(CCC(=O)c3nc4ccc([N+](=O)[O-])cc4[nH]3)nnc2s1 | class 0
Nc1nc(Cl)cc(NCCCCNc2cc(Cl)nc(N)n2)n1 | class 0
COc1cc(/C=C\c2cc(/C=C\c3ccc(O)c(OC)c3)n(C(=O)CNc3ccccc3OC)n2)ccc1O | class 0
CCCC(=O)Oc1ccc(/C(=C(\C)c2ccc(Cl)cc2)c2ccc(OCCN(CC)CC)cc2)cc1 | class 1
ClC1c2ccccc2CCc2ccccc21 | class 0
COc1ccc(C(=O)Cn2cnc3c(Nc4cc(C(=O)Nc5ccc(N6CCN(CCO)CC6)cc5)ccc4C)ncnc32)cc1 | class 0

Exam item: Field: below-cutoff. Rule: recorded growth strictly less than 20%. Subject: `C=C1C(=O)O[C@H]2[C@H]1CC/C(COC(=O)c1cc(OC)c(OC)c(OC)c1)=C\CC[C@@]1(C)O[C@@H]21`
Marked response: class 1

====

Parameter: growth. Scope: all listed entries.
System: A498 renal
Test: NCI-60 one-dose screen, 48 h (100 = growth as untreated, 0 = no growth, -100 = all killed)
Conditions: 10 µM unless noted
About 83,000 compounds went through this panel and 20% of them were active in at least one assay; those are over-represented in the sample as a whole.
Quick reminder: number only, in %, skip the unit.

Nc1c(C(=O)O)[nH]c(=O)[nH]c1=O | 106
CC1(C)Cc2c(Br)c(Br)c(Br)c(OCC(O)CN3CCN(c4ccccn4)CC3)c2O1 (stereo not given) | 96.2
Cc1cn(C2CC(F)C(CO)O2)c(=O)[nH]c1=O (stereo not given) | 112
CC(C)(C)OC(=O)N1CCN(CCn2cc(C(F)(F)F)c3c(Cl)ncnc32)CC1 | 103
COc1cc2nc(C(=O)N3CCCCC3)cc(Nc3ccccc3)c2cc1OC | 91

Exam item: Would you kindly share the measured growth for `COc1cc(/C=C2/Oc3cc4occc4c(OC)c3C2=O)ccc1OCC(=O)Nc1ccncc1` ?
Marked response: 111

Exam item: Would you kindly share the measured growth for `COc1cc(C(=O)C[n+]2ccccc2)ccc1OC(C)=O` ?
Marked response: 78.9

Exam item: Would you kindly share the measured growth for `O=[N+]([O-])c1cccc(C2c3ccccc3Oc3ccccc32)c1` ?
Marked response: 94.1

Exam item: Would you kindly share the measured growth for `COc1ccc(Cn2cc(COc3ccc4c5ccnc(C)c5n(CCCc5ccccc5)c4c3)nn2)cc1` ?
Marked response: 88.8

Exam item: Would you kindly share the measured growth for `CCc1c(C)c2cc3nc(NCc4ccccc4)oc3c(C)c2oc1=O` ?
Marked response: 49.2

====

Parameter: growth. Scope: all listed entries.
Test system: SNB-19 CNS
Assay: NCI-60 one-dose screen, 48 h (100 = growth as untreated, 0 = no growth, -100 = all killed)
Details: 10 µM unless noted
The panel holds about 83,000 compounds, 20% with a hit somewhere; the sample as a whole holds those more often.
Quick reminder: number only, in %, skip the unit.

// known answers, use as guide
COC(=O)CCCNS(=O)(=O)c1cc(C(=O)Nc2ccc(NC(=O)c3cc(S(=O)(=O)NCCCC(=O)OC)c(O)c(O)c3O)cc2)c(O)c(O)c1O | 96.1
CC(=O)c1ccc2c(c1)C1C=CCC1[C@H](c1cc3c(cc1Br)OCO3)N2 (stereo partly drawn) | 44.6
COc1cc([C@@H]2c3cc4c(cc3C(OC3O[C@@H]5COC(C)O[C@H]5[C@H](O)[C@H]3O)C3COC(=O)[C@@H]32)OCO4)cc(OC)c1O (stereo partly drawn) | 27.4

Exam item: Would you kindly share the measured growth for `Oc1ccccc1/C=N/c1ccccn1` ?
Marked response: 88

Exam item: Would you kindly share the measured growth for CC12CCC3C(CCC4CC(O)CCC43C)C1C/C(=C/O)C(=O)O2 (stereo not drawn) ?
Marked response: 101

Exam item: Would you kindly share the measured growth for `COc1ccc(Cn2cc3c(c2-c2cc(OC)c(OC)c(OC)c2)CCc2c(CO)noc2-3)cc1` ?
Marked response: 30.2

Exam item: Would you kindly share the measured growth for `C=C1c2c(Cl)ccc(O)c2C(O)=C2C(=O)[C@]3(O)C(O)=C(C(N)=O)C(=O)[C@@H](N(C)C)[C@@H]3[C@@H](O)[C@H]12` ?
Marked response: 20.9

Exam item: Would you kindly share the measured growth for `O=C(c1ccccc1)[C@H]1[C@@H]2CCCN2[C@]2(C(=O)Nc3ccc(F)cc32)[C@]12C(=O)Nc1ccccc12` ?
Marked response: 90.8

Exam item: Would you kindly share the measured growth for CC(C)(c1ccc(OCC(O)CNCc2ccco2)cc1)c1ccc(OCC(O)CNCc2ccco2)cc1 (stereo not drawn) ?
Marked response: 96.4

Exam item: Would you kindly share the measured growth for `CCCCNc1cc(C(=O)O)cc(S(N)(=O)=O)c1Oc1ccccc1` ?
Marked response: 106

Exam item: Would you kindly share the measured growth for `O=C(O)c1ccc(-n2cc(/C=N/Nc3ccc(F)cc3)c(-c3cccc(C(F)(F)F)c3)n2)cc1` ?
Marked response: 91.3

Exam item: Would you kindly share the measured growth for COc1ccc(/C=N/C2=NNC(C)(c3ccccc3O)N2C(Cc2c[nH]c3ccccc23)C(=O)O)cc1 (stereo not drawn) ?
Marked response: 27.8

Exam item: Would you kindly share the measured growth for Cc1cn([C@]2(CF)O[C@H](CO)C2C)c(=O)[nH]c1=O (stereo partly drawn) ?
Marked response: 118

Exam item: Would you kindly share the measured growth for `CS(=O)(=O)Nc1cccc(-c2ccc3ncnc(Nc4cncc(Cl)c4)c3c2)c1` ?
Marked response: 51.4

Exam item: Would you kindly share the measured growth for `COc1cc(NC(=O)C#Cc2ccccc2)c(OC)cc1Cl` ?
Marked response: 40.7

Exam item: Would you kindly share the measured growth for `CC(C)CNCC(=O)Nc1ccc(Cc2ccc(NC(=O)CNCC(C)C)cc2)cc1` ?
Marked response: 72.6

Exam item: Would you kindly share the measured growth for `CCN(CC)CCNC(=O)c1c(C)[nH]c(/C=C2\C(=O)Nc3cc(NC(=O)NC(=O)c4ccc(OC)cc4F)ccc32)c1C` ?
Marked response: 92.4

Exam item: Would you kindly share the measured growth for `Cc1c(NC(=O)c2sc3nc4c(cc3c2N)CN(Cc2ccccc2)CC4)cccc1C(F)(F)F` ?
Marked response: 50.5

====

Tested on: SNB-19 CNS
Experiment: NCI-60 one-dose screen, 48 h (100 = growth as untreated, 0 = no growth, -100 = all killed)
Conditions: 10 µM unless noted
Compounds without any hit were thinned out: in the full panel of roughly 83,000, 20% have a hit.
Label scheme for growth: lower than 40% is class 0, 40% and above is class 1.

COC(=O)c1oc2c(C(C)=O)c(OCCN3CCCCC3)ccc2c1C | class 1
CC1(C)CC(=O)C2=C(C1)OC1=C(C(=O)CC(C)(C)C1)C2c1ccc(OCc2cn(-c3ccc(F)cc3F)nn2)cc1 | class 1
CC(C)(C)NCC(O)COc1c(Br)c(Br)c(Br)c2c1OC(C)(C)C2 (stereo not given) | class 0
Cc1ccccc1C[P+](c1ccccc1)(c1ccccc1)c1ccccc1 | class 0
CC(C)(C)OC(=O)N1CC(Cn2cc(C(F)(F)F)c3c(Cl)ncnc32)C1 | class 0
CCN(CC)CCNc1ccc([N+](=O)[O-])c2sc3cc(Cl)ccc3c(=O)c12 | class 1

Exam item: Is reported growth greater than or equal to 40% here: `COC(=O)c1oc2c(C(=O)/C=C/c3ccc(OC)cc3)c(OCCN3CCOCC3)ccc2c1C`
Marked response: class 0

Exam item: Is reported growth greater than or equal to 40% here: Cc1cc(C)c(O)c(C(=O)CC(Br)C(=O)O)c1 (stereo not given)
Marked response: class 1

Exam item: Is reported growth greater than or equal to 40% here: `Nc1ccc(S(=O)(=O)Nc2ccnn2-c2ccccc2)cc1`
Marked response: class 1

Exam item: Is reported growth greater than or equal to 40% here: `Cc1ccc(-c2cc(-c3nnc(SCC(=O)c4ccccc4)o3)c3ccccc3n2)cc1`
Marked response: class 1

Exam item: Is reported growth greater than or equal to 40% here: `O=C(Nc1ccc(-n2ccc3c(NC(=O)c4ccccc4)nccc32)cc1)c1ccc(Cl)c(C(F)(F)F)c1`
Marked response: class 1

Exam item: Is reported growth greater than or equal to 40% here: `O=C(Nc1ccc(-n2ccc3c(NC(=O)c4ccccc4)nccc32)cc1)c1cccc(C(F)(F)F)c1`
Marked response: class 0

Exam item: Is reported growth greater than or equal to 40% here: `CCOC(=O)n1cnc2c(Cl)ncnc21`
Marked response: class 1

Exam item: Is reported growth greater than or equal to 40% here: COc1cc(NC(C)CCCN2C(=O)c3ccccc3C2=O)c2nccc(C)c2c1OC (stereo not given)
Marked response: class 1

Exam item: Is reported growth greater than or equal to 40% here: `COc1ccc(-c2cnc(-c3ccc(F)cc3)[nH]2)cc1`
Marked response: class 1

Exam item: Is reported growth greater than or equal to 40% here: OC[C@@H](O)C(O[C@@H]1O[C@H](CO)[C@H](O)[C@H](O)[C@H]1O)[C@H](O)[C@@H](O)CO (stereo not given in full)
Marked response: class 1

Exam item: Is reported growth greater than or equal to 40% here: `CCCCOc1nc2ccc(Cl)cc2cc1/C=C/C(=O)/C=C/c1ccc(Cl)cc1`
Marked response: class 1

Exam item: Is reported growth greater than or equal to 40% here: `CCCCN(CCCC)c1ccc(C(=N)c2ccc(N(C)C)cc2)cc1`
Marked response: class 0

Exam item: Is reported growth greater than or equal to 40% here: `CCCCCCCCCCCCCCCCCCNCc1ccc(Cl)cc1`
Marked response: class 0

Exam item: Is reported growth greater than or equal to 40% here: `O=C(Nc1ccc(-n2cc(-c3ccncc3)c(-c3ccc(O)c(Cl)c3)n2)cc1)Nc1cccc(Cl)c1Cl`
Marked response: class 1
